# Test system: L1210 leukemia ip in BDF1 mice, survival T/C
# METHOD: NCI In Vivo Anticancer Drug Screen. Data for tumor model L1210 Leukemia (intraperitoneal) in B6D2F1 (BDF1) mice
# ASSAY SETUP: endpoint: mean survival time; dose: 200.0 mg/kg/injection; schedule: Q04DX002 (ip); vehicle: saline with Tween-80
Inconclusive results and toxic doses are left out. Cut-off read from the data, not from the text of the source: active = T/C of 150% or more; inactive = T/C below 125%.
Lab note: assign the record to one of Yes (active), No (inactive)

Recorded test outcome, item CCC1(C)n2c(=O)c3ccccc3c(=O)n21
No

Another molecule to check: O=C(O)c1cc(=O)n(CCCn2c(=O)cc(C(=O)O)[nH]c2=O)c(=O)[nH]1
No

Another molecule to check: Cc1ccc(N=Cc2cc(Cl)cc(Cl)c2OC(=O)c2ccccc2)cc1C
No

Another molecule to check: CC(C)=CCC/C(C)=C\COc1cccc(C)c1
No

Another molecule to check: NC(N)=NCCCS(=O)(=O)Nc1ccc(Nc2c3ccccc3nc3cc([N+](=O)[O-])ccc23)cc1
Yes

Another molecule to check: CCC1(c2ccccc2)C(=O)N(CBr)C(=O)N(CBr)C1=O
No

Another molecule to check: CCOCCOCCOC(C)Oc1ccc(C(=O)OCC)cc1 (stereo not given)
No

Another molecule to check: COc1cc(Cc2nccc3ccccc23)cc([N+](=O)[O-])c1OC
No

Another molecule to check: COc1cc(C(=O)Nc2ccccc2)cc(OC)c1OC
No

Another molecule to check: O=C(Cc1ccccc1)NCc1ccc(Cl)cc1
No

Another molecule to check: Cc1ccc(NC(=O)CC#N)c(C)c1
No

Another molecule to check: CC(C)CC/C=C/c1ccccc1
No

Another molecule to check: Cc1ccccc1N(C)C
No

Another molecule to check: O=C1C=CC(=O)c2c1ccc1c2[nH]c2ccccc21
No

Another molecule to check: CC(C(O)c1ccncc1)[N+](=O)[O-] (stereo not given)
No

Another molecule to check: C1CCC2C(C1)CCC1C2OCN2CCCCC12 (stereo not given)
No

Another molecule to check: O=C1c2ccccc2C(=O)N1CNc1ccccn1
No

Another molecule to check: O=C1C=CC(=O)C2=C1C1c3ccccc3C2c2ccccc21
No

Another molecule to check: NOC(=O)c1cccc(Cl)c1
No

Another molecule to check: COc1ccc(C(=O)CN2C=C(C(=O)c3cc4ccccc4n3S(=O)(=O)c3ccccc3)CCC2)cc1
No

----------
# System: L1210 leukemia ip in BDF1 mice, survival T/C
# METHOD: NCI In Vivo Anticancer Drug Screen. Data for tumor model L1210 Leukemia (intraperitoneal) in B6D2F1 (BDF1) mice
# ASSAY SETUP: endpoint: mean survival time; dose: 200.0 mg/kg/injection; schedule: Q01DX001 (ip); vehicle: saline; higher = longer survival
Inconclusive results and toxic doses are left out.
Provide the recorded T/C for the entries that follow.

Could you tell me which T/C is on file for O=C(O)/C=C\C(=O)Nc1ccccn1 ?
100 % of control

Another compound to check: COC1C(C(=O)O)=CC=CC1OC(C)=O (configuration not stated)
102 % of control

Another compound to check: CSCc1ccccn1
93 % of control

Another compound to check: COc1ccc(CCCCC(=O)O)cc1O
103 % of control

Another compound to check: N#CC1(C#N)OC12CCS(=O)(=O)c1ccccc12 (configuration not stated)
95 % of control

Another compound to check: COc1cc(N)c2ncccc2c1Cl
104 % of control

Another compound to check: O=C1NNCc2c1sc1ccccc21
98 % of control

Another compound to check: Cc1ccc(S(=O)(=O)NCCC(=O)O)cc1
98 % of control

Another compound to check: O=S(=O)(O)C(O)C(Cl)(Cl)Cl (configuration not stated)
101 % of control

Another compound to check: CSc1n[nH]c(=O)nc1SC
96 % of control

Another compound to check: O=[N+]([O-])c1ccc(O)c(N=Cc2ccccn2)c1
90 % of control

Another compound to check: CN=C(N)c1ccc(S(=O)(=O)N=C(N)N)cc1
98 % of control

Another compound to check: NC(CCc1c[nH]c(=O)[nH]c1=O)C(=O)O (configuration not stated)
98 % of control

Another compound to check: COc1cc(CCC(=O)O)cc(/C=N/NC(N)=O)c1O
89 % of control

Another compound to check: Cc1ccc(C2CC2S(=O)(=O)c2ccccc2)cc1 (configuration not stated)
112 % of control

Another compound to check: CC(=O)Nc1cccc(OCCOc2cccc([N+](=O)[O-])c2)c1
101 % of control

Another compound to check: COC(OC)C1=CC(=O)NC(NC(=O)C(Cl)Cl)N1 (configuration not stated)
95 % of control

Another compound to check: COC(=O)c1cc(=O)nc2n1C1OC(CO)C(O)C1O2 (configuration not stated)
101 % of control

Another compound to check: C[N+](C)(C)CCOc1ccc([N+](=O)[O-])cc1
92 % of control

Another compound to check: Nc1cc(C(=O)O)ccc1Cl
95 % of control

Another compound to check: CCN(CC)CCOC(=O)c1[nH]cnc1/N=N\N(C)C
98 % of control

Another compound to check: Cn1c(=O)c2[nH]c(C3CCCCCC3)nc2n(C)c1=O
87 % of control
